# TEST PROTOCOL: NCI Yeast Anticancer Drug Screen. Data for the mlh1 rad18 strain (AID 175)
# PARTICULARS: S. cerevisiae mlh1 rad18 strain growth inhibition; at 50.0 µM; active compounds read high
About 79,000 compounds went through this panel and 15% of them were active in at least one assay; those are over-represented in the sample as a whole.
Note that class boundaries on growth inhibition are group A = under -10%, group B = from -10% up to 20%, group C = 20% and over

Would you please look over these solved cases?
[[record]]
molecule = "CCOc1cc2ccc3c4cc(OC)c(OC)cc4cnc3c2cc1OCC"
discrete_label = "group A"

[[record]]
molecule = "O=c1[nH]c(=O)c2nnoc2[nH]1"
discrete_label = "group A"

[[record]]
molecule = "Clc1ccccc1/C=C1\\c2ccc(Br)cc2-c2cccc[n+]21"
discrete_label = "group C"

[[record]]
molecule = "CCn1c(=O)c2[nH]c(-n3c(Cl)nc4c3c(=O)n(CC)c(=O)n4CC)nc2n(CC)c1=O"
discrete_label = "group C"

[[record]]
molecule = "COC1C2C[C@@H](O)CCC2C(C(=O)OCCl)C[C@H]1O (stereo not given in full)"
discrete_label = "group A"


Category lookup for the molecule O=C(c1ccccc1)C1CC2C=CC1C2 (stereo not given) group B

Next record, please: COC(=O)c1s/c(=N\C(=S)N(C)C)n(-c2ccc(Cl)cc2)c1C(=O)OC group B

Next record, please: O=C(CN1C(=O)c2cccc3c(Br)ccc(c23)C1=O)c1ccc(F)cc1 group B
